Tested on: flies (family Muscidae)
procedure_details: Oviposition inhibition tests (treated fly food; Examples 6-9)
Format: in vivo
assay_setup: 0.5% in food
readout_name: Mortality, parent generation (%)
A number alone suffices; assume %.

Asked: Item under review: CCCCOc1cc2c(cc1C(C)c1ccccc1)OCO2 (stereo not shown) . Reported Mortality, parent generation?
Given back: 0

Asked: Item under review: CCCCCOc1cc2c(cc1C(C)c1ccc(OC)cc1)OCO2 (stereo not shown) . Reported Mortality, parent generation?
Given back: 0

Asked: Item under review: COc1ccc(Cc2cc(C(C)(C)C)cc(C(C)(C)C)c2O)cc1 . Reported Mortality, parent generation?
Given back: 0

Asked: Item under review: COc1ccc(Cc2cc3c(cc2OCC(C)C)OCO3)cc1 . Reported Mortality, parent generation?
Given back: 90

Asked: Item under review: CCOc1c(C)cc(Cc2ccc3c(c2)OCO3)cc1C . Reported Mortality, parent generation?
Given back: 85

Asked: Item under review: CCCCOc1cc2c(cc1Cc1ccc(OC)cc1)OCO2 . Reported Mortality, parent generation?
Given back: 0

Asked: Item under review: CC(C)(C)c1cc(Cc2ccccc2)c(O)c(C(C)(C)C)c1 . Reported Mortality, parent generation?
Given back: 0

Asked: Item under review: COc1ccc(Cc2cc3c(cc2OCCC(C)C)OCO3)cc1 . Reported Mortality, parent generation?
Given back: 0

Asked: Item under review: COc1ccc(C(C)c2cc(C(C)(C)C)cc(C(C)(C)C)c2O)cc1 (stereo not shown) . Reported Mortality, parent generation?
Given back: 0

Asked: Item under review: COc1ccc(Cc2cc3c(cc2OC(C)C)OCO3)cc1 . Reported Mortality, parent generation?
Given back: 80

----------
System: flies (family Muscidae)
procedure_details: Chemosterilancy tests (egg hatch and pupal development; Examples 6-9)
Format: in vivo
assay_setup: 1.0% in food
For each entry below, report its Pupal development value.
A number alone suffices; assume %.

Asked: Item under review: CCCCCOc1cc2c(cc1C(C)c1ccc(OC)cc1)OCO2 (centres unmarked) . Reported Pupal development?
Given back: 0

Asked: Item under review: CCCOc1cc2c(cc1C(C)c1ccccc1)OCO2 (centres unmarked) . Reported Pupal development?
Given back: 0

Asked: Item under review: COc1ccc(C(C)c2cc(C(C)(C)C)cc(C(C)(C)C)c2O)cc1 (centres unmarked) . Reported Pupal development?
Given back: 0

Asked: Item under review: CC(c1ccccc1)c1cc(C(C)(C)C)c(O)c(C(C)(C)C)c1 (centres unmarked) . Reported Pupal development?
Given back: 0

Asked: Item under review: CC(C)(C)c1cc(Cc2ccccc2)c(O)c(C(C)(C)C)c1 . Reported Pupal development?
Given back: 0

----------
System: flies (family Muscidae)
procedure_details: Oviposition inhibition tests (treated fly food; Examples 6-9)
Type: in vivo
assay_setup: 0.01% in food
readout_name: Mortality, parent generation (%)
A number alone suffices; assume %.

Asked: Item under review: COc1ccc(Cc2cc(C(C)(C)C)cc(C(C)(C)C)c2O)cc1 . Reported Mortality, parent generation?
Given back: 0

Asked: Item under review: CC(c1ccccc1)c1cc(C(C)(C)C)cc(C(C)(C)C)c1O (centres unmarked) . Reported Mortality, parent generation?
Given back: 0

Asked: Item under review: COc1ccc(C(C)c2cc3c(cc2OC)OCO3)cc1 (centres unmarked) . Reported Mortality, parent generation?
Given back: 0

Asked: Item under review: CCCOc1cc2c(cc1C(C)c1ccc(OC)cc1)OCO2 (centres unmarked) . Reported Mortality, parent generation?
Given back: 0

Asked: Item under review: COc1ccc(Cc2cc3c(cc2OC)OCO3)cc1 . Reported Mortality, parent generation?
Given back: 0

Asked: Item under review: CCOc1cc2c(cc1Cc1ccc(OC)cc1)OCO2 . Reported Mortality, parent generation?
Given back: 0

Asked: Item under review: CCCCOc1cc2c(cc1C(C)c1ccc(OC)cc1)OCO2 (centres unmarked) . Reported Mortality, parent generation?
Given back: 0

Asked: Item under review: C=CCc1cc2c(cc1Cc1ccc(OC)cc1)OCO2 . Reported Mortality, parent generation?
Given back: 0
